The measured values listed here are drawn from PubChem BioAssay AID1863.

Each entry below carries its reported inhibition.
# method.summary: PhoP-dependent GFP reporter repression – Salmonella Typhimurium, primary screen (AID 1863);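 note: 0% = low Mg2+ inducing control and 100% = high Mg2+ repressing control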
# reported.conditions: S. Typhimurium PhoP-regulated promoter GFP reporter, 4 h; at 50 µM; active compounds read high
Out of some 300,000 compounds screened, about 480 (0.16%) were called active. The list is a sample of the results. Potency and affinity values are given separately.
Express the result in % but write the number alone.

These solved cases illustrate the format of a correct answer.
{"compound": "Cc1sc2ncnc(N/N=C/c3cccc(O)c3)c2c1C", "inhibition, %": -0.11}
{"compound": "Cc1ccc(SC2=C(Sc3ccc(C)cc3)C(=O)c3ccccc3C2=O)cc1", "inhibition, %": 4.97}
{"compound": "CC(C)CCNC(=O)c1c(CSc2ccccc2)noc1C(=O)NCc1ccccc1", "inhibition, %": -1.54}
{"compound": "Cc1ccccc1CSc1nnc(-c2ccncc2)n1C", "inhibition, %": 1.82}
{"compound": "O=S1(=O)N=C(SCCO)c2ccccc21", "inhibition, %": -8.43}
{"compound": "Cc1nnsc1S(=O)c1ccc(Cl)c(Cl)c1 (configuration not stated)", "inhibition, %": 3.99}
{"compound": "COc1ccc(CN2C3CCC2CC(NC(=O)c2cccc(F)c2)C3)cc1 (configuration not stated)", "inhibition, %": 5.59}
{"compound": "Cc1sc2ncnc(N/N=C/c3ccc(O)cc3)c2c1C", "inhibition, %": 11.1}

q: What value of inhibition has been reported for the following compound? Cc1sc2ncnc(Nc3ccccc3)c2c1C
a: 8.39

q: What does the record list as inhibition for Nc1nc(-c2cccnc2)nn1C(=O)c1ccccc1Cl ?
a: 0.52

q: Report inhibition for CN(CC(=O)Nc1ccccc1Br)C(=O)c1ccc(COc2ccccc2)cc1 please.
a: 1.64

q: Look up inhibition for this compound: COCCn1c(-c2ccc(Cl)cc2)cnc1SCC(=O)NCCc1ccc(OC)c(OC)c1
a: 12.7

* * *

Listing of recorded inhibition by entry.
# method.summary: PhoP-dependent GFP reporter repression – Salmonella Typhimurium, primary screen (AID 1863);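 note: 0% = low Mg2+ inducing control and 100% = high Mg2+ repressing control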
# reported.conditions: S. Typhimurium PhoP-regulated promoter GFP reporter, 4 h; at 50 µM; active compounds read high
Out of some 300,000 compounds screened, about 480 (0.16%) were called active. A selection follows. Potency and affinity values are given separately.
Numeric only. Scale: %

{"compound": "Oc1ccccc1C(Nc1nccs1)c1ccc2cccnc2c1O (stereo unspecified)", "inhibition, %": 1.53}
{"compound": "COc1cccc(Oc2ccc(S(=O)(=O)N3CCCC3)cc2[N+](=O)[O-])c1", "inhibition, %": -0.65}
{"compound": "COCCCNC(=O)CN(c1cc(Cl)cc(Cl)c1)S(C)(=O)=O", "inhibition, %": -4.71}

q: Reported inhibition for COc1cc(NC(=O)Cn2ccsc2=N)c(C)cc1[N+](=O)[O-] : what is it?
a: 0.16

q: Looking for the measured inhibition of CC1CCC(C(C)C)C(OC(=O)Cn2c(-c3ccc(F)cc3)[n+](C)c3ccccc32)C1 (stereo unspecified) , can you help?
a: 4.57

q: So what does the record say about inhibition for O=C(CCSCCC(=O)N1CCCC1)N1CCCC1 ?
a: 0.69

* * *

# method.summary: PhoP-dependent GFP reporter repression – Salmonella Typhimurium, primary screen (AID 1863);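 note: 0% = low Mg2+ inducing control and 100% = high Mg2+ repressing control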
# reported.conditions: S. Typhimurium PhoP-regulated promoter GFP reporter, 4 h; at 50 µM; active compounds read high
About 480 (0.16%) of roughly 300,000 compounds were called active. The list is a sample of the results. Measured potencies and affinities stand elsewhere.
assay.endpoint: inhibition (%)
Answer format: numeric, % implied, no suffix.

{"molecule": "COc1ccc(Cc2nnc(Nc3ccc(C)cc3)o2)cc1OC", "numeric.readout": 1.4}
{"molecule": "CN1C(=O)[C@@H]2[C@H](C1=O)[C@@H]1C(=O)Nc3ccccc3C(=O)N1[C@@H]2c1ccc(F)cc1", "numeric.readout": 6.12}
{"molecule": "O=C(O)/C=C/c1ccc([N+](=O)[O-])o1", "numeric.readout": 23.2}

q: Fill in: inhibition of Cc1cccc(Nc2cc(=O)[nH]c(=O)[nH]2)c1C is ___
a: 11.8

q: Entry under review: CC[C@H]1OC(=O)[C@H](C)[C@@H](O[C@H]2C[C@@](C)(OC)[C@@H](O)[C@H](C)O2)[C@H](C)[C@@H](O[C@@H]2O[C@H](C)C[C@H](N(C)C)[C@H]2O)[C@](C)(O)C[C@@H](C)C(=O)[C@H](C)[C@@H](O)[C@]1(C)O . Reported inhibition?
a: 6.93

* * *

# method.summary: PhoP-dependent GFP reporter repression – Salmonella Typhimurium, primary screen (AID 1863);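 note: 0% = low Mg2+ inducing control and 100% = high Mg2+ repressing control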
# reported.conditions: S. Typhimurium PhoP-regulated promoter GFP reporter, 4 h; at 50 µM; active compounds read high
The whole screen tested about 300,000 compounds, of which about 480 (0.16%) were called active. Not all results are given here. Measured potencies and affinities stand elsewhere.
Catalogue of inhibition values
Report the value in % with no unit label.

Field: example entries. Status: answers known.
{"molecule": "CN(CC(=O)Nc1ccc(F)cc1)C(=O)c1cccc(S(=O)(=O)N2CCN(c3ccccc3)CC2)c1", "inhibition / %": -1.79}
{"molecule": "CC1c2ccsc2CCN1S(=O)(=O)c1ccccc1 (stereo not given)", "inhibition / %": 5.29}
{"molecule": "NC1=NC[C@H](c2ccccc2)N1CC1CCCCC1", "inhibition / %": -3.43}

q: What value of inhibition has been recorded for this entry: COc1cc(/C=C/C(=O)CC(=O)/C=C/c2ccc(O)c(OC)c2)ccc1O
a: 8.28

q: // query inhibition value for entry CC1(C)NC(=O)N(CC(O)CN(c2ccccc2)S(=O)(=O)c2ccccc2)C1=O (stereo not given)
a: -1.71

q: Looking for the measured inhibition of Cc1nnc(N/N=C/C(C)c2ccccc2)[nH]c1=O (stereo not given) , can you help?
a: -2.09

* * *

Measured inhibition, listed per entry.
# method.summary: PhoP-dependent GFP reporter repression – Salmonella Typhimurium, primary screen (AID 1863);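 note: 0% = low Mg2+ inducing control and 100% = high Mg2+ repressing control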
# reported.conditions: S. Typhimurium PhoP-regulated promoter GFP reporter, 4 h; at 50 µM; active compounds read high
Among all 300,000 compounds or so, about 480 (0.16%) were called active. Only a sample is shown. Results with a measured potency or affinity are listed apart.
Return type: number; implicit unit %.

Before answering, review these 3 worked examples.
{"compound": "CN(CCCC[C@H](CNCc1ccc(-c2ccccc2)cc1)N1C[C@H](c2ccccc2)N(CCc2ccc(Cl)c(Cl)c2)C(=O)C1=O)Cc1ccc(-c2ccccc2)cc1", "unit.symbol": "%", "numeric.readout": 8.2}
{"compound": "CCOCCCNC(=O)c1ccc2c(c1)ncn2-c1ccc(C)cc1C", "unit.symbol": "%", "numeric.readout": -8.15}
{"compound": "CCOc1ccc(CCN2C(=O)C(=O)N([C@H](CCCN(C)Cc3ccccc3)CNCc3ccccc3)C[C@@H]2C(C)C)cc1", "unit.symbol": "%", "numeric.readout": 12.1}

q: Which value of inhibition has been reported for C=CCN(c1ccccc1)S(=O)(=O)c1cccc(C(=O)N2CC(C)CC(C)C2)c1 (centres undefined) in the records?
a: -1.91

* * *

inhibition for assorted molecules
# method.summary: PhoP-dependent GFP reporter repression – Salmonella Typhimurium, primary screen (AID 1863);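 note: 0% = low Mg2+ inducing control and 100% = high Mg2+ repressing control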
# reported.conditions: S. Typhimurium PhoP-regulated promoter GFP reporter, 4 h; at 50 µM; active compounds read high
Screen size: about 300,000 compounds; about 480 (0.16%) were called active. Only a sample is shown. Measured potencies and affinities stand elsewhere.
Report only the number, with the unit % understood.

See these solved cases before continuing.
{"molecule": "COc1ccc(CCNCC(O)Cn2c3ccccc3c3ccccc32)cc1OC (stereo unspecified)", "unit.symbol": "%", "numeric.readout": -4.43}
{"molecule": "CCOc1ccccc1N(CC(=O)N/N=C(\\C)c1cccc(Br)c1)S(C)(=O)=O", "unit.symbol": "%", "numeric.readout": -0.46}
{"molecule": "O=C(CSc1ccc(-c2ccccn2)nn1)N1CCc2ccccc21", "unit.symbol": "%", "numeric.readout": -3.41}

q: Quick one: inhibition for CC(C)N(C(=O)COC(=O)[C@@H]1CC(O)CN1S(=O)(=O)c1ccc(C(C)(C)C)cc1)C(C)C (stereo partly specified) ?
a: 0.76

q: Data request, read-out inhibition, for COC(=O)C(C)(C(=O)OC)c1ccc(C(F)(F)F)cc1[N+](=O)[O-]
a: -5.58

q: Can you share its inhibition? I mean this molecule: Oc1ccccc1Nc1ccccn1
a: 0.2

q: Query (molecule): c1ccc(Nc2ccccn2)nc1 ; field requested: inhibition
a: -3.66

q: Which inhibition value belongs to CCOc1ccccc1-c1ccc(C(=O)NCc2ccccc2)o1 ?
a: -2.75

q: Look up inhibition: CC(C)(C)c1ccc(OCCNCc2ccccc2)cc1
a: -2.16

q: Form field: reported inhibition of Cc1cc(C(C)(C)C)ccc1OCCN(C)C
a: -7.47

q: I have this molecule here, CCCCCCCCCCC[N+](C)(C)CC/C=C1/c2ccccc2Sc2ccc(Cl)cc21 , and I need its recorded inhibition.
a: 0.18
